- assay_remarks: Pharmacokinetic analysis, plasma concentrations by LC-MS/MS, noncompartmental
- Format: in vivo, human
- particulars: male, human, plasma, po, 600 mg, T1/2, 600 mg oral; C2D1 (n=4), steady-state
measured_parameter: half-life (h)
The answer is to be given in h; state only the numeric part.

Fill in the blank: the reported half-life of `CC(C)[C@](O)(c1ccc2cc(OC(F)F)c(OC(F)F)cc2c1)c1c[nH]nn1` is ____.
14.8

* * *

- assay_remarks: Pharmacokinetic analysis, plasma concentrations by LC-MS/MS, noncompartmental
- Assay type: in vivo, human
- particulars: male, human, plasma, po, 600 mg, Tmax, 600 mg oral; C2D1 (n=4), steady-state
measured_parameter: Tmax (h)
The answer is to be given in h; state only the numeric part.

Fill in the blank: the reported Tmax of `CC(C)[C@](O)(c1ccc2cc(OC(F)F)c(OC(F)F)cc2c1)c1c[nH]nn1` is ____.
5

* * *

- assay_remarks: Pharmacokinetic analysis, plasma concentrations by LC-MS/MS, noncompartmental
- Type: in vivo, human
- particulars: male, human, plasma, po, 750 mg, Tmax, 750 mg oral; C2D2 (n=l), steady-state
measured_parameter: Tmax (h)
The answer is to be given in h; state only the numeric part.

Fill in the blank: the reported Tmax of CC(C)[C@](O)(c1ccc2cc(OC(F)F)c(OC(F)F)cc2c1)c1c[nH]nn1 [Seviteronel] is ____.
2
